- target or system: human RIP1 kinase domain (2-375) (Homo sapiens (Human), UniProt Q13546)
- Sequence (Q13546 2-375): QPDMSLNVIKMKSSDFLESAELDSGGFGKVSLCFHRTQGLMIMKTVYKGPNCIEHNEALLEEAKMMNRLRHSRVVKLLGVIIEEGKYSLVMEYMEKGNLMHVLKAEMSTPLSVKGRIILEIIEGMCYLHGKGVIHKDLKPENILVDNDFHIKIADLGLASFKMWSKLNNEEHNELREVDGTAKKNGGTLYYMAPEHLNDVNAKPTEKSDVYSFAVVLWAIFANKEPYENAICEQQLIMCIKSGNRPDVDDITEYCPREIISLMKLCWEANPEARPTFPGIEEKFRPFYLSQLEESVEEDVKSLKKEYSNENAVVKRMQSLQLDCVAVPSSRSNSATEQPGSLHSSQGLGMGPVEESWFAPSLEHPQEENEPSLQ
- assay details: biochemical
- Assay type: biochemical
- measurement parameters: Table 1; apparent Ki (Morrison tight-binding fit); 50 nM RIP1 kinase domain, 50 uM ATP, 2 hours incubation; read-out: RIP1 Ki
pKi: −log10 of the molar value.
Note that class boundaries on pKi are lower range (below 6), middle range (6 to below 7), upper range (7 or more)

Query block: Classify this compound: `CN1C(=O)[C@@H](NC(=O)c2ncc3ccc(C(F)(F)F)cn23)COc2ccccc21`
Result block: upper range

Query block: Now the same for `CN1C(=O)[C@@H](NC(=O)c2ncn(Cc3ccccc3)n2)CCn2nccc21`
Result block: upper range

Query block: Now the same for CN1C(=O)[C@@H](NC(=O)c2n[nH]c3c2C2CC2CC3)COc2ccccc21 (some centres unmarked)
Result block: lower range

Query block: Now the same for `CN1C(=O)[C@@H](NC(=O)c2ncn3ccc(C(F)(F)F)cc23)CCn2nccc21`
Result block: middle range

Query block: Now the same for `CN1C(=O)[C@@H](NC(=O)c2nnc(Cc3ccccc3)[nH]2)CCn2nc(C3CC3)cc21`
Result block: upper range

Query block: Now the same for CC1CCc2cnc(C(=O)N[C@H]3COc4ccccc4N(C)C3=O)n2C1 (some centres unmarked)
Result block: middle range

Query block: Now the same for CC1CCc2noc(C(=O)N[C@H]3COc4ccccc4N(C)C3=O)c2C1 (some centres unmarked)
Result block: upper range

Query block: Now the same for `CN1C(=O)[C@@H](NC(=O)c2n[nH]c3c2CCCC3)COc2ccccc21`
Result block: lower range

Query block: Now the same for CC1CCc2noc(C(=O)N[C@H]3COc4ccccc4NC3=O)c2C1 (some centres unmarked)
Result block: middle range

Query block: Now the same for CC1Cn2c(cnc2C(=O)N[C@H]2COc3ccccc3N(C)C2=O)CO1 (some centres unmarked)
Result block: lower range

Query block: Now the same for `CN1C(=O)[C@@H](NC(=O)c2n[nH]c3c2CCC3)COc2ccccc21`
Result block: lower range

Where these numbers come from: patent US10988459B2
